Values compiled from PubChem BioAssay (NCATS).

Biological target: alpha-glucosidase (Oryza sativa, rice) (UniProt Q653V4)
Test: Counterscreen for Glucocerebrosidase Inhibitors: qHTS Assay for Rice alpha-Glucosidase at pH 5.0 (AID 997)
Conditions: rice alpha-glucosidase enzyme activity; series mostly up to 76.9 µM
The source made the active and inactive calls. Calls follow the shape of the dose curve; as a rule, active = well fitted curve in the direction sought with a large enough effect; inconclusive = small, poorly fitted or top-dose-only effect, or another doubt; inactive = no such curve, though single readings can be large or run the other way.

>  <SMILES INPUT>
Cc1cc(N)c2ccccc2[n+]1CCCCCCCCCC[n+]1c(C)cc(N)c2ccccc21

>  <outcome>
inactive

$$$$
>  <SMILES INPUT>
CC(=O)OCC(=O)[C@@]1(O)CC[C@H]2[C@@H]3CCC4=CC(=O)CC[C@]4(C)[C@H]3C(=O)C[C@@]21C

>  <outcome>
inactive

$$$$
>  <SMILES INPUT>
CC(C)C(=O)c1c(C(C)C)nn2ccccc12

>  <outcome>
inactive

$$$$
>  <SMILES INPUT>
CN(C)CCCN1c2ccccc2CCc2ccccc21

>  <outcome>
inactive

$$$$
